Each recorded value in this set is attributed to ChEMBL document CHEMBL1123727.

# TARGET_OF_ASSAY: GABA-A receptor; anion channel
# RUN_DESCRIPTION: In vitro displacement of [3H]diazepam from GABA-A benzodiazepine receptor in rat cerebral cortex
MEASURED_QUANTITY: IC50 (nM)
Write the value in nM as a bare number.

// solved cases for IC50 follow
- RECORD_SMILES: "OCc1cc2c3ccccc3nc-2c[nH]1"
  IC50 (nM): 1470
- RECORD_SMILES: "CC(=O)c1cc2c3ccccc3nc-2c[nH]1"
  IC50 (nM): 58
- RECORD_SMILES: "c1ccc(CNc2ccc3[nH]c4cnccc4c3c2)cc1"
  IC50 (nM): 106
- RECORD_SMILES: "O=C(OC1CCCC1)c1cc2c3ccccc3nc-2c[nH]1"
  IC50 (nM): 50

Sure, the documented IC50 for `COC(=O)c1cc2c(cn1)[nH]c1ccc(NCc3ccccc3)cc12` is 10

Value of measured IC50 for the entry `OCc1cc2c3cc(NCc4ccccc4)ccc3nc-2c[nH]1` : 76

Entry `Nc1ccc2[nH]c3cnccc3c2c1` , IC50 reported as 1300
